# assay text: folding enthalpy; higher = less favourable; fluorescence melt of hairpins on a sequencing array, two-state fit
# assay setup: sodium 0.088 M
Label class 1 when folding enthalpy >= -90 kJ/mol; otherwise class 0.

> print(dat)
                     biopolymer.sequence  class.name
1    GTCCGTCGAAAGACGAC (((.(((....))))))     class 1
2  GGCGGCGAAAGCCCGGCC ((((((....)))..)))     class 1
3    GAATGCGAAAGCACTTC ((((((....))).)))     class 1
4  GCCAGTCGAAAGACAGGC (((.(((....))).)))     class 0
5      GATCTCTTGGGAGATC ((((((....))))))     class 0

query: Is folding enthalpy at least -90 kJ/mol? Consider GCAGACGAAAGTCGCTGC ((((((....)))..)))
result: class 0

query: Do the same for GATCCATTGTGGATC ((((((...)))))) please
result: class 0

query: Do the same for CGGACCCGGAAACGGCCG (((..(((....)))))) please
result: class 1

query: Do the same for GCACACGAAAGTGTTTGC ((((((....)))..))) please
result: class 1

query: Do the same for GTGGGCGGAAACGTCCGC (.((.((....)).)).) please
result: class 0

query: Do the same for GTTGTCCGAAAGGAGAAC (((.(((....))).))) please
result: class 0

query: Do the same for GGTTAGGGAAACTTGACC (((.(.(....).).))) please
result: class 1

query: Do the same for GCGCTGCGAAAGCCGGGC ((.(.((....)).).)) please
result: class 1

query: Do the same for GCTTACGAAAGTAGCAGC ((((((....)))..))) please
result: class 1

query: Do the same for GACAGCACGAAAGTGGTC (((..(((....)))))) please
result: class 1

query: Do the same for GGTATCGAAAGATAAACC ((((((....)))..))) please
result: class 1

query: Do the same for GCTATCTCGAAAGAGAGC (((..(((....)))))) please
result: class 1

* * *

# assay text: melting temperature; fluorescence melt of hairpins on a sequencing array, two-state fit, raised by 9.35 °C to match UV melts
# assay setup: sodium 0.088 M
Let's look at some sequences and their measured Tm.
Return type: number; implicit unit °C.

Known Tm results, listed for orientation:
> print(dat)
                     biopolymer.sequence  property.measured  unit.spec  numeric.value
1  GAATTGGGAAACTGATTC ((((..(....)..))))                 Tm         °C           25.6
2      GATCACCAATGTGATC ((((((....))))))                 Tm         °C           54.1
3      GATCACTAGTGTGATC ((((((....))))))                 Tm         °C           55.1

# ---- query sequence ----
query: So what does the record say about Tm for GATTCCGAAAGGAAGATC ((((((....)))..))) ?
result: 45.4

* * *

# assay text: melting temperature; fluorescence melt of hairpins on a sequencing array, two-state fit, raised by 9.35 °C to match UV melts
# assay setup: sodium 0.088 M
I'd appreciate it if you marked entries Yes when Tm is lower than 50 °C and No when it is not.

Sample answers from the record:
> print(dat)
                      biopolymer.sequence  class.name
 1  GGCCTCGGAAACAAGGCC (((((.(....).)))))          No
 2      GCTCGAGAAATCGAGC ((((((....))))))          No
 3  GGCGAGCGAAAGCTAGCC (((.(((....))).)))          No
 4      GATCGCACAAGCGATC ((((((....))))))          No
 5  GCAGGGCGAAAGCAGTGC (((..((....))..)))          No
 6    GAGCGGCGAAAGCCCTC (((.(((....))))))          No
 7  GGGGCAGGAAACTGCTCC ((.((((....)))).))          No
 8  GTCCAAGGAAACTTAGAC (((.(((....))).)))         Yes
 9  GGGACCCGAAAGGGACCC (((.(((....))).)))          No
10  GTCCATGGAAACATAGAC (((.(((....))).)))         Yes

query: Consider the sequence GCCATCCGAAAGGAAGGC (((.(((....))).))) . Is its Tm strictly less than 50 °C?
result: No

query: Do the same for GTCCGCCCGAAAGGGGAC (((..(((....)))))) please
result: Yes

query: Do the same for GCTGACTCGAAAGAGAGC (((..(((....)))))) please
result: Yes

query: Do the same for GATCGGTCAACCGATC ((((((....)))))) please
result: No

query: Do the same for GCGAACGTCGC ((((...)))) please
result: Yes

query: Do the same for GATCAACGTTTGATC ((((((...)))))) please
result: Yes

query: Do the same for GTCCGCACGAAAGTGGAC (((..(((....)))))) please
result: Yes

query: Do the same for GATCTTACCGAAGATC ((((((....)))))) please
result: Yes

query: Do the same for GTGCATACGAAAGTACAC (((..(((....)))))) please
result: Yes

query: Do the same for GTCTTTTCGAAAGAAGAC (((..(((....)))))) please
result: Yes

query: Do the same for GTGGCAGGAAACTGCCGC (.(((((....))))).) please
result: No

query: Do the same for GCCCGGCGAAAGCGGCGC ((.(.((....)).).)) please
result: No

query: Do the same for GTCTCACGAAAGTGGAC (((.(((....)))))) please
result: Yes

query: Do the same for GATCTAATGTTAGATC ((((((....)))))) please
result: Yes

query: Do the same for GGCAATCGAAAGATAGCC (((.(((....))).))) please
result: No

query: Do the same for GTTCTAGCGAAAGCTAAC (((..(((....)))))) please
result: Yes

query: Do the same for GATCATGCTAATGATC ((((((....)))))) please
result: No

* * *

Let's look at some sequences and their measured folding enthalpy.
# assay text: folding enthalpy; higher = less favourable; fluorescence melt of hairpins on a sequencing array, two-state fit
# assay setup: sodium 0.088 M
Return type: number; implicit unit kcal/mol.

query: So what does the record say about folding enthalpy for GTCATCGAAAGATTGGAC ((((((....)))..))) ?
result: -17.7

query: Do the same for GATCCTATACAGGATC ((((((....)))))) please
result: -38.1

query: Do the same for GCGATGCGAAAGCATTGC ((.((((....)))).)) please
result: -43.9

query: Do the same for GATCGGCAAACCGATC ((((((....)))))) please
result: -36.1

query: Do the same for GATCTGATTGCAGATC ((((((....)))))) please
result: -29.1

query: Do the same for GGGTGCGAAAGCAATCCC ((((((....)))..))) please
result: -21.8

query: Do the same for GCAAACGGAAACATTTGC (((((.(....).))))) please
result: -28.2

query: Do the same for GCCCCGCGAAAGCGTTGC ((..(((....)))..)) please
result: -9.75

query: Do the same for GTGCTTGGAAACAAGTGC (..((((....))))..) please
result: -21

* * *

# assay text: folding enthalpy; higher = less favourable; fluorescence melt of hairpins on a sequencing array, two-state fit
# assay setup: sodium 0.088 M
property measured: folding enthalpy (kcal/mol)
Return type: number; implicit unit kcal/mol.

> print(dat)
                      biopolymer.sequence  property.measured  numeric.value
 1  GTGCTCACGAAAGTGCAC (((..(((....))))))   folding enthalpy          -19.9
 2      GATAAGGAAACTTATC ((((((....))))))   folding enthalpy          -26.8
 3      GATCCATGTGTGGATC ((((((....))))))   folding enthalpy          -37.2
 4      GATCGAACGCTCGATC ((((((....))))))   folding enthalpy          -40.4
 5  GCCACGCGAAAGCACGGC (((..((....))..)))   folding enthalpy          -35.9
 6  GAGCACGAAAGTGCGCTC ((((((....)))..)))   folding enthalpy          -12.5
 7  GTTACCCGAAAGGGAAAC (((.(((....))).)))   folding enthalpy          -21.6
 8      GATCCGGTTCCGGATC ((((((....))))))   folding enthalpy            -43
 9        GATCTTTTAAAGATC ((((((...))))))   folding enthalpy          -30.9
10  GATTGACGAAAGTCTATC (((.(((....))).)))   folding enthalpy          -26.2

query: So what does the record say about folding enthalpy for GGGTGCGAAAGCATTCCC ((((((....)))..))) ?
result: -17.4

query: Do the same for GATCACGAAAGTGGAATC ((((((....)))..))) please
result: -10.3

query: Do the same for GATCCCAAACGGGATC ((((((....)))))) please
result: -35.3

query: Do the same for GGCCGGGGAAACTCGGCC (((((.(....).))))) please
result: -40

query: Do the same for GCGTAAGGAAACTTATGC ((.((((....)))).)) please
result: -31.2

query: Do the same for GCCGTCCGAAAGGAGGC (((.(((....)))))) please
result: -27.4

query: Do the same for GCTAGACGAAAGTCGAGC (((.(((....))).))) please
result: -32.9

query: Do the same for GGTATAGAAATATACC ((((((....)))))) please
result: -26.4

query: Do the same for GCGCAGCGAAAGCGTCGC (((..((....))..))) please
result: -13.3

query: Do the same for GTTTTTGAAAAAAAAC ((((((....)))))) please
result: -27.3

query: Do the same for GAGCATGGAAACATGTTC ((.((((....)))).)) please
result: -25.6

query: Do the same for GATCAACGTTTGATC ((((((...)))))) please
result: -26.1

query: Do the same for GGCTCCGAAAGGATCGCC ((((((....)))..))) please
result: -21.7
